Source listed as ChEMBL document CHEMBL1777758.

Answer each item with its documented pKa.
assay: Dissociation constant, pKa of the compound; format: physicochemical
One number for each entry.

These recorded examples may help you get a feel for the data.
{"smi": "CCN(CCCC(=O)OC)c1ccc(C2=C3C(C)=CC(C)=[N+]3[B-](F)(F)n3c(C)cc(C)c32)cc1", "pKa": 3.2}
{"smi": "CCN(CC)c1ccc(C2=C3C(C)=CC(C)=[N+]3[B-](F)(F)n3c(C)cc(C)c32)cc1", "pKa": 5.2}
{"smi": "CCN(CC)c1ccc(C2=C3C=CC(CCC(=O)OC)=[N+]3[B-](F)(F)n3c(CCC(=O)OC)ccc32)cc1", "pKa": 3.2}

For the next question, use this compound.
Q: For `CC1=CC(C)=[N+]2C1=C(c1ccc(N(C)C)cc1)c1c(C)cc(C)n1[B-]2(F)F` , what is its reported pKa?
Result: 3.2
